Tested on: complement
Assay: Inhibition of complement mediated hemolysis
Format: cell-based
Conditions: compound at 1 × 10^-6
Field: Inhibition of complement mediated hemolysis (%). Provide a value for each of the molecules that follow.
One number for each entry, in %.

molecule | units-text | recorded-result
COc1cc(C(=N)N)ccc1OC(=O)CCc1ccccc1 [Compound 32] | % | 7.1

Report Inhibition of complement mediated hemolysis (%) for each item below.
1. N=C(N)c1ccc(OC(=O)c2ccc(F)cc2)c([N+](=O)[O-])c1 [Compound 85]
2. N=C(N)c1cc(Br)c(OC(=O)c2ccc3c(c2)OCO3)c(Br)c1 [Compound 47]
3. COc1ccccc1C(=O)Oc1ccc(C(=N)N)cc1C(=O)c1ccccc1 [Compound 41]
4. N=C(N)c1ccc(OC(=O)c2ccc(S(N)(=O)=O)cc2)c([N+](=O)[O-])c1 [Compound 68]

Result:
[67.1, 13.4, 0, 50.6]

Report Inhibition of complement mediated hemolysis (%) for each item below.
1. COc1cc(C(=N)N)ccc1OC(=O)c1ccc(CN)cc1 [Compound 58]
2. Cc1cc(C(=O)Oc2ccc(C(=N)N)cc2C(=O)c2ccccc2)ccc1[N+](=O)[O-] [Compound 81]

Result:
[3.0, 4.2]
